# target-desc: HER2 S310F (Homo sapiens, UniProt P04626, S310F)
# Sequence (P04626 23-1255 S310F): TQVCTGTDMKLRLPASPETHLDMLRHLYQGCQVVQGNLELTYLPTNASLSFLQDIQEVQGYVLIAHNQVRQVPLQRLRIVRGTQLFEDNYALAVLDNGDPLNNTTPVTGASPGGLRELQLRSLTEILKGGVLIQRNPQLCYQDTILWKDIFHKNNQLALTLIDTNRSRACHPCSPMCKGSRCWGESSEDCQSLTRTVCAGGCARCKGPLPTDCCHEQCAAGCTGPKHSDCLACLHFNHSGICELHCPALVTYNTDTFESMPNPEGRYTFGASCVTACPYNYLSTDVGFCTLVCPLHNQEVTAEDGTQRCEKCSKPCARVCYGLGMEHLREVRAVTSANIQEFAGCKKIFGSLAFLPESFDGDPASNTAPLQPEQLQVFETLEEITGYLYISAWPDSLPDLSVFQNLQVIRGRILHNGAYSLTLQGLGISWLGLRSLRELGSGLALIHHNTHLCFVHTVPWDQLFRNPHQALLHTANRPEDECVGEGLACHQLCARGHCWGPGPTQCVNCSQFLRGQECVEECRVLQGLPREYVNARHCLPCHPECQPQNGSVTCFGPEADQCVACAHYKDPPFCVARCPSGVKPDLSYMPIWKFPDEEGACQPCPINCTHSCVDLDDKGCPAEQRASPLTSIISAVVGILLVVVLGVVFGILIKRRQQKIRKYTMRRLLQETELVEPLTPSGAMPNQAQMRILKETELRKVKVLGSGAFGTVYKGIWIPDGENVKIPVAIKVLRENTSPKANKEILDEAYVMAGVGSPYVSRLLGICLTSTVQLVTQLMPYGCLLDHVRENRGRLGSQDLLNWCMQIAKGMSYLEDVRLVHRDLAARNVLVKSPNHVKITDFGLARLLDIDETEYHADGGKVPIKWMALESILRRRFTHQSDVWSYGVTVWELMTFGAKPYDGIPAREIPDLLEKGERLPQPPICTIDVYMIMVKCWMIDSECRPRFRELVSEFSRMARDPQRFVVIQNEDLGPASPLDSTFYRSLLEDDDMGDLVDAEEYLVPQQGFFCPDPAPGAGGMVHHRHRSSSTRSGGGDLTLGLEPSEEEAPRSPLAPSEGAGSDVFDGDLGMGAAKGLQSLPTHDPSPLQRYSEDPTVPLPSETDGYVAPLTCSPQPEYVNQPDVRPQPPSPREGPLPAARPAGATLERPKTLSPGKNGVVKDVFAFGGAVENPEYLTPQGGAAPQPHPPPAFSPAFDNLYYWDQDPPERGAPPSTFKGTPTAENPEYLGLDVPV
# assay-text: BaF3 cell proliferation assay (CellTiterGlo), HER2 S310F
# particulars: Table A; BaF3 cells, 3 days
IC50 overview

molecule	IC50
C=CC(=O)Nc1cc2c(Nc3cccc(Cl)c3F)ncnc2cc1C#CC1(C)CN(C)C1 [Compound 11]	100 to 500 nM
C=CC(=O)Nc1cc2c(Nc3cccc(Cl)c3F)ncnc2cc1C#CC1(C)CN(C)CC1(F)F (stereo not shown) [Compound 55]	100 to 500 nM
C=CC(=O)Nc1cc2c(Nc3ccc(Cl)c(Cl)c3F)ncnc2cc1C#CC1C2COCC12 (stereo not shown) [Compound No. 80]	50 to 100 nM
C=CC(=O)Nc1cc2c(Nc3ccc(OCc4ccccn4)c(Cl)c3)ncnc2cc1C#C[C@@]1(C)CCCN1C [Compound 16]	≤ 50 nM

* * *

# target-desc: EGFR wt (Homo sapiens, UniProt P00533)
# Construct: expressed in transfected cells; host or cells: BaF3 (murine pro-B) cells, retroviral transduction with pMXs-IRES-Blasticidin
# Sequence (P00533 25-1210): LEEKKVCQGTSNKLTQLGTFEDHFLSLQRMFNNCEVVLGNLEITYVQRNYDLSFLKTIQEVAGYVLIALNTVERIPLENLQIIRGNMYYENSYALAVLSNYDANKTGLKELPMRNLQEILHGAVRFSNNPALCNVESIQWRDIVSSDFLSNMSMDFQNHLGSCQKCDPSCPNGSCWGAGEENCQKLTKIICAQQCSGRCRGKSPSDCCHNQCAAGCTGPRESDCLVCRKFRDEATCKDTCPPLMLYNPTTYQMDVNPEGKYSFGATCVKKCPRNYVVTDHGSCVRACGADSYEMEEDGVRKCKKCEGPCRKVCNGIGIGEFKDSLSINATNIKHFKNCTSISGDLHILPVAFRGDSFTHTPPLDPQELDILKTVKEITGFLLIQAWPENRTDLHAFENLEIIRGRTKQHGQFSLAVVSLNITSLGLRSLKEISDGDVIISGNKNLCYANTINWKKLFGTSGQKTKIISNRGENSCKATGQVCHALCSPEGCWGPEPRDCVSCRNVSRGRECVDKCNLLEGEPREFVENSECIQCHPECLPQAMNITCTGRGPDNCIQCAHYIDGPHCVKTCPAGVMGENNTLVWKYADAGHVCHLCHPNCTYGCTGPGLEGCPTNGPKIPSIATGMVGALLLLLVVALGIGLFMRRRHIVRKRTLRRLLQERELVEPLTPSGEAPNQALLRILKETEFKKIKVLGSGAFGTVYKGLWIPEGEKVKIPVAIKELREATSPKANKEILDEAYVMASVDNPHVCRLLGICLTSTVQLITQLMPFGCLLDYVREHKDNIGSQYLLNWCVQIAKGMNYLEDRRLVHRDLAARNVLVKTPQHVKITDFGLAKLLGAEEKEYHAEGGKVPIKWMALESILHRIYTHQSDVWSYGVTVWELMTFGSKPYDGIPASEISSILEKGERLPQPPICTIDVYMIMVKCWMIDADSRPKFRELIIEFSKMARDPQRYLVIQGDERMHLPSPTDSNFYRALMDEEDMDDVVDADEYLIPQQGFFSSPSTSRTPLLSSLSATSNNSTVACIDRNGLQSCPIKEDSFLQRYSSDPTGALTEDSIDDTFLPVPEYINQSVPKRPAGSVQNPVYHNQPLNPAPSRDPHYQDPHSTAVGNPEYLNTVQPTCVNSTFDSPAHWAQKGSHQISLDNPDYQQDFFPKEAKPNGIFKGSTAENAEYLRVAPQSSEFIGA
# assay-text: BaF3 cell proliferation assay (CellTiterGlo), EGFR wt
# Format: cell-based
# particulars: Table A; BaF3 cells, 3 days
measured-metric: IC50

molecule	target-desc	measured-metric	data-value
C=CC(=O)Nc1cc2c(Nc3cccc(Cl)c3F)ncnc2cc1C#C[C@@]1(C)CCCN1C	EGFR wt (Homo sapiens, UniProt P00533)	IC50	> 500 nM
C=CC(=O)Nc1cc2c(Nc3cccc(Cl)c3F)ncnc2cc1C#CC1(C)CN(C)CC1(F)F (centres unmarked)	EGFR wt (Homo sapiens, UniProt P00533)	IC50	> 500 nM
C=CC(=O)Nc1cc2c(Nc3ccc(OCc4cccc(F)c4)c(Cl)c3)ncnc2cc1C#C[C@@H]1[C@H]2CN(C)C[C@@H]12	EGFR wt (Homo sapiens, UniProt P00533)	IC50	> 500 nM
C=CC(=O)Nc1cc2c(Nc3ccc(Cl)c(Cl)c3F)ncnc2cc1C#CC1C2COCC12 (centres unmarked)	EGFR wt (Homo sapiens, UniProt P00533)	IC50	50 to 100 nM
C=CC(=O)Nc1cc2c(Nc3cc(Cl)ccc3F)ncnc2cc1C#CC1(C)COC1	EGFR wt (Homo sapiens, UniProt P00533)	IC50	100 to 500 nM
C=CC(=O)Nc1cc2c(Nc3ccc(Cl)c(Cl)c3F)ncnc2cc1C#CC1(C)CCOC1 (centres unmarked)	EGFR wt (Homo sapiens, UniProt P00533)	IC50	100 to 500 nM
C=CC(=O)Nc1cc2c(Nc3cccc(Cl)c3F)ncnc2cc1C#C[C@@]12C[C@@H]1CN(C1COC1)C2	EGFR wt (Homo sapiens, UniProt P00533)	IC50	50 to 100 nM
C=CC(=O)Nc1cc2c(Nc3cccc(Cl)c3F)ncnc2cc1C#CC12CC1CN(C)C2 (centres unmarked)	EGFR wt (Homo sapiens, UniProt P00533)	IC50	100 to 500 nM
C=CC(=O)Nc1cc2c(Nc3ccc(OCc4cccc(F)c4)c(Cl)c3)ncnc2cc1C#CC1(C)CCOC1 (centres unmarked)	EGFR wt (Homo sapiens, UniProt P00533)	IC50	> 500 nM
CN1C[C@H]2C[C@@]2(C#Cc2cc3ncnc(Nc4cccc(Cl)c4F)c3cc2NC(=O)/C=C/CN2CCOCC2)C1	EGFR wt (Homo sapiens, UniProt P00533)	IC50	≤ 50 nM
C=CC(=O)Nc1cc2c(Nc3cccc(Cl)c3F)ncnc2cc1C#C[C@@]1(C)CCN(C2COC2)C1	EGFR wt (Homo sapiens, UniProt P00533)	IC50	100 to 500 nM
C=CC(=O)Nc1cc2c(Nc3ccc(OCc4ccccn4)c(Cl)c3)ncnc2cc1C#C[C@@]1(C)CCN(C)C1	EGFR wt (Homo sapiens, UniProt P00533)	IC50	> 500 nM
COC/C=C/C(=O)Nc1cc2c(Nc3cccc(Cl)c3F)ncnc2cc1C#C[C@@]12C[C@@H]1CN(C)C2	EGFR wt (Homo sapiens, UniProt P00533)	IC50	≤ 50 nM
C=C(CO)C(=O)Nc1cc2c(Nc3cccc(Cl)c3F)ncnc2cc1C#C[C@@]12C[C@@H]1CN(C)C2	EGFR wt (Homo sapiens, UniProt P00533)	IC50	50 to 100 nM
CN1C[C@H]2C[C@@]2(C#Cc2cc3ncnc(Nc4cccc(Cl)c4F)c3cc2NC(=O)/C=C/CN2CCCC(C(=O)O)C2)C1 (some centres unmarked)	EGFR wt (Homo sapiens, UniProt P00533)	IC50	100 to 500 nM
C=C(C)C(=O)Nc1cc2c(Nc3cccc(Cl)c3F)ncnc2cc1C#C[C@@]1(C)CCN(C)C1	EGFR wt (Homo sapiens, UniProt P00533)	IC50	100 to 500 nM
C=CC(=O)Nc1cc2c(Nc3cccc(Cl)c3F)ncnc2cc1C#CC12CC1CN(C1COC1)C2 (centres unmarked)	EGFR wt (Homo sapiens, UniProt P00533)	IC50	100 to 500 nM
